Would you mind telling me the reported GI50 of each entry?
Tested on: UACC-62
protocol text: NCI DTP antiproliferative screen, melanoma UACC-62
Type: cell-based, human
The reply should be a number in nM, with the unit left off.

Please look up its GI50: COc1cc2cnc3c(c2cc1OC)Cc1c-3cc2c(c1CN(C)CCN(C)C)OCO2 [Compound 14f] 730

Quick one: GI50 for COc1cc2cnc3c(c2cc1OC)Cc1c-3cc2c(c1Cn1ccnc1)OCO2 [Compound 14c] ? 210

---

experimental target: Human recombinant Top1 (Homo sapiens, UniProt P11387)
Construct: made in house
Sequence (P11387 1-765): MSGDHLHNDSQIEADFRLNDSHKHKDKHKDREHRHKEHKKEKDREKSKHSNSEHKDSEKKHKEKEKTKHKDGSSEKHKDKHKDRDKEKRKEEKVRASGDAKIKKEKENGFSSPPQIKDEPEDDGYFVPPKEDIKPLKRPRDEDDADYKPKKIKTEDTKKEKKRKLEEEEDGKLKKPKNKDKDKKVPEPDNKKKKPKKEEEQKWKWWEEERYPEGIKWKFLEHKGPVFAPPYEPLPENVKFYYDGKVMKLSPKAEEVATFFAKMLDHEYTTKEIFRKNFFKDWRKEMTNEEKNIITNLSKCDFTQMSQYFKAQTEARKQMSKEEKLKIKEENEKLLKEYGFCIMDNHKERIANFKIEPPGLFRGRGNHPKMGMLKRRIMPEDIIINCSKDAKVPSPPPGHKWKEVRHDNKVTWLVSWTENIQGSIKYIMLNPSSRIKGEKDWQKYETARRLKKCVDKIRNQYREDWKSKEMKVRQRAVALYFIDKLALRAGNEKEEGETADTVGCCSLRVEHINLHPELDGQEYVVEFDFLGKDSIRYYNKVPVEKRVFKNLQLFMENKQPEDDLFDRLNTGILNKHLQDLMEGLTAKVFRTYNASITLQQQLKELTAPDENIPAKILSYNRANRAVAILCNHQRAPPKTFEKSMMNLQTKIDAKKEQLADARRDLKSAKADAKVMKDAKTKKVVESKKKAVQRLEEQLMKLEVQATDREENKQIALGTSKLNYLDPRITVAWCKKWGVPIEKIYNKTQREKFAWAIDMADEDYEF
protocol text: Topoisomerase I-mediated DNA cleavage reactions
Type: biochemical
measurement context: 117-bp DNA substrate, gel of FIG. 2
parameter measured: 106 (C-T) cleavage site in Top1-mediated DNA cleavage pattern

[
  {
    "compound": "COc1cc2cnc3c(c2cc1OC)Cc1c-3cc2c(c1C)OCO2 [Compound 15]",
    "reported": "observed"
  },
  {
    "compound": "COc1cc2cnc3c(c2cc1OC)Cc1c-3cc2c(c1CN1CCOCC1)OCO2 [Compound 14e]",
    "reported": "absent"
  },
  {
    "compound": "COc1cc2cnc3c(c2cc1OC)Cc1c-3cc2c(c1CN1CCN(C)CC1)OCO2 [Compound 14d]",
    "reported": "absent"
  },
  {
    "compound": "COc1cc2cnc3c(c2cc1OC)Cc1cc2c(cc1-3)OCO2 [Compound 5, reference compound]",
    "reported": "observed"
  }
]
